Tested on: Saccharomyces cerevisiae;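 note: PSI is a weighted mean of sequencing reads over stability bins, variants kept only with over 10 reads, mCherry proximal and sfGFP distal, peptide attached via GGGS linker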
measurement protocol: protein stability index of tFT-peptide fusion (C-terminal peptide) (PSI (0-1 scale)); higher = more stable (slower turnover)
test context: genetic background: wild type; temperature: 30 C
Each record here notes measured protein stability index.
Reply: number alone, nothing else.

// solved cases for protein stability index follow
residue sequence | protein stability index
KEVNEDIDKAKS | 0.782
DAIHSPALLASP | 0.715
NAVCCGKWRGGS | 0.714
RCPPLWNPLSPL | 0.697
FLLLVVYVSLYS | 0.216

protein stability index for RPSVSNVSEAEE ?
0.648

Record: THTPPPSPLTLP
0.671

Record: SACRVGKSILDT
0.728

Record: GGCVGVLGGWGV
0.695

Record: WHRCQWTPASRP
0.733

This collection of values is drawn from the supplement of paper PMC10724198.
